# targetOrTestSystem: hTLR8 (Homo sapiens, UniProt Q9NR97)
# Construct: host or cells: HEK-Blue hTLR8 (HEK293-derived SEAP reporter cells)
# Sequence (Q9NR97 27-1041): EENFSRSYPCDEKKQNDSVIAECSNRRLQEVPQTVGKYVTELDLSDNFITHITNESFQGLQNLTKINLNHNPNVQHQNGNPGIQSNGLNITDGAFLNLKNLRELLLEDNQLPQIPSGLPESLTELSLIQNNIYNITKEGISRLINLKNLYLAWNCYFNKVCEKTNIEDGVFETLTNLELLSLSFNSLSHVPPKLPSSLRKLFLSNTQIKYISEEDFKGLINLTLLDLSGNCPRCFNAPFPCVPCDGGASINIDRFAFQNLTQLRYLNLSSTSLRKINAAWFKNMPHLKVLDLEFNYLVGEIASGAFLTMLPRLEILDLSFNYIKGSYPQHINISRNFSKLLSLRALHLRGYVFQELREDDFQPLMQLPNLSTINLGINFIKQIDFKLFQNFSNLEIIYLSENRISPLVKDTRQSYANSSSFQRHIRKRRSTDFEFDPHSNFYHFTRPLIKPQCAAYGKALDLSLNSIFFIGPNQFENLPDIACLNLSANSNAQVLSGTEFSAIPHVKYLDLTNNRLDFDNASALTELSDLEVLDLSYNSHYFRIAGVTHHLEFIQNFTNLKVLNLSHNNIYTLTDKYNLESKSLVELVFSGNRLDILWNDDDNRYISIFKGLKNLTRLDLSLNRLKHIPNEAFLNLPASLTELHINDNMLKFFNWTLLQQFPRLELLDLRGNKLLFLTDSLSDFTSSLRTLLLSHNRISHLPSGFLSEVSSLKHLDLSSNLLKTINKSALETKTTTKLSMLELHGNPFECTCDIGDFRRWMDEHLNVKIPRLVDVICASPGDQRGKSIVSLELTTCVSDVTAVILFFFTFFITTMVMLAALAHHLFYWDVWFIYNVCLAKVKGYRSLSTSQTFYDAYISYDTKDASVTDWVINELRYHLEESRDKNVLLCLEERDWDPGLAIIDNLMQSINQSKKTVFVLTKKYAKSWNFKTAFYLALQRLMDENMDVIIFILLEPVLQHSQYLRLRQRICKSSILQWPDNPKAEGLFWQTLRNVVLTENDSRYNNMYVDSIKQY
# assaySummary: TLR8 reporter assay in HEK-Blue cells (SEAP, Quanti-Blue)
# Format: cell-based
# conditionInfo: 24 hours incubation, SEAP absorbance at 620 nm
pEC50: −log10 of the molar value.
Consider the following molecules and their measured pEC50 readings.

Known pEC50 results, listed for orientation:
molecule	resultValue
CCOCc1nc2c(N)nc3ccccc3c2n1CC(C)(C)OCCCN1CCN(C)CC1 [Example 2]	5.00 to 6.00
CCOCc1nc2c(N)nc3ccccc3c2n1CC(C)(C)OCCNC(=O)CN1CCN(C)CC1 [Example 16]	5.00 to 6.00
CCOCc1nc2c(N)nc3ccccc3c2n1CC(C)(C)OCCCCn1cc(CN)nn1 [Example 14]	5.00 to 6.00
CCOCc1nc2c(N)nc3ccccc3c2n1CC(C)(C)OCCCCCN1CCN(C)CC1 [Example 4]	6.00 to 7.00
CCNCc1nc2c(N)nc3ccccc3c2n1CC(C)(C)OCCCCN1CCN(C)CC1 [Example 18]	< 5.00
CCOCc1nc2c(N)nc3ccccc3c2n1CC(C)(C)OCCCCN1CCNCC1 [Example 10]	5.00 to 6.00
CCOCc1nc2c(N)nc3ccccc3c2n1CC(C)(C)OCCNC(=O)CO [Example 20]	< 5.00

Consider the record given below.
Prompt: What pEC50 appears in the records for this molecule with hTLR8 (Homo sapiens, UniProt Q9NR97)? CCOCc1nc2c(N)nc3ccccc3c2n1CC(C)(C)OCCCCCCN1CCN(C)CC1 [Example 5]
Response: 6.00 to 7.00
